Entry source: PubChem BioAssay (NCI)

test system: NCI/ADR-RES ovarian; experiment: NCI tumour cell line growth inhibition, 48 h; in the data active = GI50 below about 0.43 µM; inactive = the rest
Possible outcomes: YES (active), NO (inactive)

- CCn1cc(C(=O)N/N=C/c2ccccc2)c(=O)c2cc(F)c(N3CCNC(C)C3)c(F)c21 (stereo not given): NO
- COc1cccc(-n2nc(C)c3c(N/N=C(\C)c4ccncc4)ncnc32)c1: NO
- COc1cccc2c1ccc1nc3cccc(C(=O)N[C@H](C)CN(C)C)c3nc12: YES
- C=CCC1(O)c2ccccc2C(=O)c2c(NCCN(CC(=O)OCC)CC(=O)OCC)cccc21 (stereo not given): NO
- CCC(C)[C@H]1O[C@]2(C=C[C@@H]1C)C[C@@H]1C[C@@H](C/C=C(\C)[C@@H](OC3C[C@H](OC)C(O[C@H]4C[C@H](OC)[C@@H](O)[C@H](C)O4)[C@H](C)O3)[C@@H](C)/C=C/C=C3\CO[C@@H]4[C@H](O)C(C)=C[C@@H](C(=O)O1)[C@]34O)O2 (stereo not given in full): NO

----------
Recorded TGI values for a group of molecules are listed next.
tested on: SK-OV-3 ovarian; experiment: NCI tumour cell line growth inhibition, 48 h
MEASURED_PROPERTY: TGI

- COc1cc2c(cc1OC)C(=O)/C(=C/c1ccc(Cl)cc1)CC2: > 10 µM
- Brc1cc(CCOC2CCCCO2)c(-c2sccc2CCOC2CCCCO2)s1 (centres undefined): > 100 µM
- Cc1cccc(N(C(=O)Nc2ccc(Cl)c(Cl)c2)C2=NCC(C)S2)c1 (centres undefined): > 100 µM
- O=C1C2C3C=C4c5ccccc5N(c5ccccc5)C4(C2C(=O)N1c1ccc(Cl)cc1)[C@H]1C(=O)N(c2ccc(Cl)cc2)C(=O)[C@@H]31 (some centres undefined): > 100 µM
- O=C(O/C(=C(/N=Nc1ccccc1)c1ccccc1)c1ccccc1)c1ccccc1: > 100 µM
- CN(C)CCN(C)c1ccc2c(=O)n(CCN(C)C)c(=O)n3c4ccccc4c(=O)c1c23: 16.7 µM
- OCC(O)C(Cl)CCl (centres undefined): > 100 µM
- O=c1[nH]nc2ccccc2c1Cc1ccccc1: > 100 µM
- O=C(NC(=O)c1cn(CCN(CCO)C(=O)NCCCCCCNC(=O)N(CCO)CCn2cc(C(=O)NC(=O)OCc3ccccc3)c(=O)[nH]c2=O)c(=O)[nH]c1=O)OCc1ccccc1: > 100 µM

----------
tested on: HCT-116 colon; assay: NCI tumour cell line growth inhibition, 48 h
Recorded TGI values for a group of compounds are listed next.
MEASURED_PROPERTY: TGI (µM)

* Nc1ccc2c(SCc3ccc([N+](=O)[O-])cc3)c3ccccc3nc2c1 | 22.7
* COc1ccc2c(c1)[nH]c1c(/C=C/c3ccccc3)nccc12 | 30.4
* CC1OC(n2c3ccccc3c3c4c(c5c6ccccc6[nH]c5c32)C(=O)N(CCN[C@@H]2CCC[C@H]2N)C4=O)CC(O)C1O (some centres undefined) | 5.54
* CN(C)C(=S)/N=c1\ssc(=S)n1Cc1ccccc1 | 29.6
* CC(C)C1=CC23CCC4C(C)(C(=O)O)CCCC4(C)C2CC1C1C(=O)N(c2ccccc2N2C(=O)C4C5CC6C7(C)CCCC(C)(C(=O)O)C7CCC6(C=C5C(C)C)C4C2=O)C(=O)C13 (centres undefined) | 18.2

----------
Recorded TGI values for a group of molecules are listed next.
tested on: OVCAR-4 ovarian; experiment: NCI tumour cell line growth inhibition, 48 h
MEASURED_PROPERTY: TGI

• CNC(=O)OCc1c(CO)nc(SC)n1C = > 100 µM
• CN(C)C(=S)/N=c1\ssc(=S)n1Cc1cccnc1 = > 100 µM
• Cc1ccccc1C(=O)N/N=C/c1ccc(Sc2nccn2C)c([N+](=O)[O-])c1 = > 100 µM
• COc1ccc(-c2nc(-c3ccccc3)c(-c3ccccc3)[nH]2)cc1OC1CCCC1 = > 100 µM
• COc1cc(CO)c(CC(=O)NCCCc2ccccc2)cc1OC = > 100 µM
• CCOC(=O)C(NC(=O)c1ccco1)(Nc1nc2ccc(OCC)cc2s1)C(F)(F)F (stereo unspecified) = > 100 µM
• O=S(=O)(Nc1ccc(Br)c(Cl)c1)c1ccc(-c2cnc(C3CC3)o2)cc1 = 21.9 µM
• Nc1nc(N)c2nc(CNc3ccc(C(=O)NC(CC(=O)O)C(=O)O)cc3)cnc2n1 (stereo unspecified) = > 100 µM
• CCCN(CCCc1ccccc1)CCc1ccc2[nH]c(=S)[nH]c2c1 = > 100 µM
• COc1cccc2c1ccc1nc3cccc(C(=O)N[C@H](C)CN(C)C)c3nc12 = 0.894 µM
• O=C1Nc2nc3ccccc3n2N=C2CCCC12 (stereo unspecified) = > 100 µM
• Nc1ccccc1S(=O)(=O)c1ccccc1 = > 100 µM
• C[C@H](NC(=O)c1ccc(CNC(=O)/C=C/c2cccc(Oc3ccccc3)c2)cc1)c1ccccc1 = > 100 µM
• Clc1cc2c(cc1Cl)CC(NCCN1CCCC1)CC2 (stereo unspecified) = 35.9 µM
• C=CCOC(=O)NC1C(OC(C)[C@@H](NC(=O)OCc2ccccc2)C(=O)OC(C)(C)C)OC(COC(C)=O)C(OC(C)=O)C1OC(C)=O (stereo partly specified) = > 100 µM
• COc1cc2oc3cc(=O)cc4oc(-c5ccccc5)cc(c2c2c1CCC(c1ccccc1)O2)c43 (stereo unspecified) = > 100 µM
• CCOC(=O)c1c2c(n(Cc3ccc(Cl)cc3Cl)c1C)-c1nc[nH]c1C(=O)C2=O = 19.3 µM
• Clc1ccc(N=Nc2nc3ccccc3nc2N=Nc2ccc(Cl)cc2Cl)c(Cl)c1 = > 100 µM
• Cc1ccc([N+](=O)[O-])cc1NC(=O)/C(=N/NC(=S)NN)C1SC(=S)NC1=O (stereo unspecified) = > 100 µM
• Nc1cccc(/C=C/C(=O)N2CCN(CCOC(c3ccccc3)c3ccccc3)CC2)c1 = 26.1 µM
• CCn1c(-c2ccc(N=NNc3ccc(-c4n[nH]c(=S)n4CC)cc3)cc2)n[nH]c1=S = 5.41 µM

----------
system: SN12C renal; experiment: NCI tumour cell line growth inhibition, 48 h
MEASURED_PROPERTY: GI50

- CCOC(=O)c1cc2c(n1Cc1cccc(OC)c1)-c1oncc1CCC2: 6460 nM
- Cc1cc(NCCN(C(C)C)C(C)C)nc(/N=C(\N)Nc2ccc(Cl)c(C(F)(F)F)c2)n1: 1340 nM
- O=S(=O)(Nc1ccc(Br)c(Cl)c1)c1ccc(-c2cnc(C3CC3)o2)cc1: 1270 nM
- N.N.N.N.N.[Cl-].[Co+3].c1ccc(-c2nn[n-]n2)cc1: > 100000 nM
- COc1cccc2c1ccc1nc3cccc(C(=O)N[C@H](C)CN(C)C)c3nc12: 87.9 nM
- CCCCC[C@H]1C/C=C2/C(=O)C=C[C@@H]2C/C=C\CCCC(=O)O[C@@H](CCCCC)C/C=C2/C(=O)C=C[C@@H]2C/C=C\CCCC(=O)O1: 105 nM
- O=C(Nc1cccc(-n2cc(-c3ccncc3)c(-c3cc(O)cc(Cl)c3)n2)c1)Nc1ccc(Cl)c(C(F)(F)F)c1: 3450 nM
- NC(=O)c1ccccc1Nc1ccc2nnc(-c3ccncc3)n2n1: 3690 nM
- O=C1c2cccc(NCCN=Cc3cc([N+](=O)[O-])ccc3O)c2C(=O)c2c(NCCN=Cc3cc([N+](=O)[O-])ccc3O)cccc21: 2450 nM

----------
system: A498 renal; test: NCI tumour cell line growth inhibition, 48 h
MEASURED_PROPERTY: TGI (µM)

• CN(C)CCCNc1ccc([N+](=O)[O-])c2nc3ccccc3c(N)c12 = 6.92
• Nc1ccc2c(SCc3ccc([N+](=O)[O-])cc3)c3ccccc3nc2c1 = 49.2
• CNC(=O)c1cccc2cc(Oc3ccnc4cc(OCC5(N)CC5)c(OC)cc34)ccc12 = 3.12
• Cc1cc(N(CCC#N)CCC#N)ccc1/C(N=Nc1ccc(C(=O)O)cc1)=N\NC(=O)c1cc(Cl)ccc1O = 87.7
• CC(=O)O[C@H]1C(=O)[C@@]2(C)[C@H]([C@H](OC(=O)c3ccccc3)[C@]3(O)C[C@H](OC(=O)[C@H](O)[C@@H](NC(=O)c4cccc(N=[N+]=[N-])c4)c4ccccc4)C(C)=C1C3(C)C)[C@]1(OC(C)=O)CO[C@@H]1C[C@@H]2O = 7.62
• CNCCCn1c2c(c3ccc([N+](=O)[O-])cc3c1=O)C(=O)c1cc(OC)cnc1-2 = 0.276
• CN(C)CCN(C)c1ccc2c(=O)n(CCN(C)C)c(=O)n3c4ccccc4c(=O)c1c23 = 5.36
• COc1cc([C@@H]2c3cc4c(cc3[C@@H](OC(=O)c3ccc(N)cc3)C3COC(=O)[C@@H]32)OCO4)cc(OC)c1O (stereo partly specified) = 31.5
• CC1OC(OC2C[C@](O)(C(=O)CF)Cc3c(O)c4c(c(O)c32)C(=O)c2ccccc2C4=O)CC(N)C1O (stereo partly specified) = 1.28
• CCn1cc(C(=O)N/N=C/c2ccccc2)c(=O)c2cc(F)c(N3CCNC(C)C3)c(F)c21 (stereo unspecified) = 3.38
• COc1ccc2c(c1)[nH]c1c(/C=C/c3ccccc3)nccc12 = 26.6
• COc1ccc(/C=C/C(=O)c2ccc(O)c(CN3CCN(c4cc5c(cc4F)c(=O)c(C(=O)O)cn5C4CC4)CC3)c2)cc1 = 5.54
• CC(=O)C(=Cc1ccc(C=C(C(C)=O)C(C)=O)cc1)C(C)=O = 9.03
• O=S(=O)(Nc1ccc(Br)c(Cl)c1)c1ccc(-c2cnc(C3CC3)o2)cc1 = 0.845
• CCOC(=O)c1c2c(n(Cc3ccc(Cl)cc3Cl)c1C)-c1nc[nH]c1C(=O)C2=O = 36.1
• CC1CC[C@@]2(OC1)OC1C[C@H]3[C@@H]4CC=C5CC(OC6OC(CO)C(OC7OC(CO)C(O)C(OC8OCC(O)C(O)C8O)C7OC7OC(CO)C(O)C(O)C7O)C(O)C6O)CCC5(C)[C@H]4CCC3(C)C1[C@@H]2C (stereo partly specified) = 9.19
